experiment: NCI Yeast Anticancer Drug Screen. Data for the mec2-1 strain (AID 157); conditions: S. cerevisiae mec2-1 strain, at 50.0 µM, hits give high values
About 79,000 compounds went through this panel and 15% of them were active in at least one assay; those are over-represented in the sample as a whole. Calls of active or inactive are those of the source. No stated cut-off is given here; in the data, active means growth inhibition above about 70%; inactive means the rest.
Measured growth inhibition accompanies every entry in the list below.

// worked examples, growth inhibition included
{"Molecule": "CC(=O)CC(C)(C)c1cc(CC(C)(C)C(N)=O)on1", "growth inhibition": "0.25% (inactive)"}
{"Molecule": "O=C(CCC(=O)C1CCC/C1=N/O)Nc1ccc(Cl)cc1 (centres undefined)", "growth inhibition": "-0.4% (inactive)"}
{"Molecule": "COC(=O)C1(C2CCc3cc(OC)ccc3C2=O)NC(=S)NC(=O)C1C#N (centres undefined)", "growth inhibition": "-4.45% (inactive)"}
{"Molecule": "Cc1ccc(C2=C(c3ccccc3)C(O)(c3ccccc3)C(c3ccccc3)=C2c2ccc(C)cc2)cc1", "growth inhibition": "-20.1% (inactive)"}
{"Molecule": "C=C1CN(C2=NCCO2)C1", "growth inhibition": "-39.6% (inactive)"}

Provide measured growth inhibition value, entry: CN(C)CCO[Si](C)(c1ccccc1)c1ccc(F)cc1 (centres undefined) -7.95% (inactive)

Given the molecule CC1CC2OC(=O)C(C)C2CC2(C)C(OC3OC(CO)C(O)C(O)C3O)OCCC12 (centres undefined) , write its reported growth inhibition. 2.25% (inactive)

Find the measured growth inhibition of COc1ccccc1OCC(O)CNc1ccc(Cl)cc1C(=O)c1ccccc1 (centres undefined) and report it. 21.5% (inactive)

Specify measured growth inhibition for `C=CCSc1nc2ccc(N=Cc3ccc([N+](=O)[O-])cc3)cc2s1` . -12.5% (inactive)

* * *

test: NCI Yeast Anticancer Drug Screen. Data for the sgs1 mgt1 strain (AID 161);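 further: 0% = growth of cultures given vehicle only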; conditions: S. cerevisiae sgs1 mgt1 strain, at 50.0 µM, hits give high values
Compounds without any hit were thinned out: in the full panel of roughly 79,000, 15% have a hit.
Attribute Measured: growth inhibition (%)
// return numeric value only (unit: %, not printed)

{"Compound": "COc1ccc(Sc2cccc(Cl)c2)c(C(=O)O)c1", "Value Measured": -27.2}
{"Compound": "COc1cccc(/C(C#N)=C\\O)c1", "Value Measured": -29.9}

Give recorded growth inhibition. `NC(N)=N/N=C/c1c(Cl)nc2n1CCS2` -9.5

Report growth inhibition, nothing else, for this compound: `N#CC(CCc1ccccc1[N+](=O)[O-])(CCc1ccccc1[N+](=O)[O-])C(N)=O` 24.4

# return recorded growth inhibition for input `O=C(O)COc1cccc([N+](=O)[O-])c1` -9.9

Please give measured growth inhibition of the following entry: `CCCc1ccccc1NC(=O)NCCCl` -0.5

For the compound c1ccc(C2OC(c3ccccc3)c3ccccc32)cc1 (centres undefined) , give its reported growth inhibition. 12.4

Provide growth inhibition value for the following compound: `CCN(CC)C(=O)Cn1c(C)cc2ccccc21` 7.9

Determine from records and report growth inhibition for `COc1c(C)c2nc3ccccc3[nH]c2c2c(=O)ccnc12` -12.4

For `Cc1ccc(S(=O)(=O)CC(=O)CC(=O)C(=O)Nc2ccc(Cl)cc2C)cc1` , write its growth inhibition. -7.95

Report growth inhibition for `O=c1c2cc([N+](=O)[O-])ccc2n2n1Cc1ccccc1CC2` -6.5

Recall and state the measured growth inhibition for `CN(C)C(CO)(CO)CO` . 3

Consider the compound `Cc1nc(Cl)c(C)c(Cl)n1` . State its measured growth inhibition. 1.4

Respond only with growth inhibition recorded for COc1ccc(CCC(=O)O)c(C(CC(=O)O)C(=O)O)c1OS(=O)(=O)c1ccc(C)cc1 (centres undefined) -40.5

Specify growth inhibition for `CN(C)CC(CN(C)C)C(=O)/C=C/c1ccc(O)cc1` and stop. 6.05

State its growth inhibition for this compound: `C/C(=N\NC(C)(C)C)c1sc(-c2nc(C)c(/C(C)=N/NC(C)(C)C)s2)nc1C` -7.5

Query growth inhibition for `C=CC1(c2ccc(Cl)c(Cl)c2)OCCO1` 15

Find the measured growth inhibition of COC(C(=O)[O][Ge]([CH3])([CH3])[CH3])c1ccccc1 (centres undefined) and report it. -6.85

Please list growth inhibition recorded for the compound `OCCCCCCN=Cc1ccccc1O.OCCCCCCN=Cc1ccccc1O.[Cu]` 72.2

For the compound CC(C)(C)OC(=O)CNC(=O)C(CSC(c1ccccc1)c1ccccc1)NC(=O)CNC(=O)C(CCCCNC(=O)OCc1ccccc1)NC(=O)CNC(=O)C(CSC(c1ccccc1)(c1ccccc1)c1ccccc1)NC(=O)OCc1ccccc1 (centres undefined) , give its measured growth inhibition value. 8.5

Given `CN(C)C=Nc1ccc(F)cc1` , respond with its growth inhibition. -11.4

Please indicate growth inhibition recorded for `c1ccc2c(c1)CCc1ccccc1N=N2` -17.1

Tell me growth inhibition reported for CC(=O)OC1COC(n2c(O)c(N=NC(N)=S)c3cc(Br)ccc32)C(OC(C)=O)C1OC(C)=O (centres undefined) 46.2

Supply reported growth inhibition belonging to this compound: CN(C)CC(/C(Cc1ccccc1)=N\NC(=S)NN)c1ccccc1 (centres undefined) 38.2

Give recorded growth inhibition. `Cc1ccccc1-c1nc(/C=C2\C(=O)C=Cc3ccccc32)c(O)o1` -1.1

Check the records and state growth inhibition for `O=c1ccn(Cc2ccccc2)c(=O)[nH]1` 4.35

The reported measurements were obtained from PubChem BioAssay (NCI).
